Here the recorded He (%) mics is given for each entry.
test: Circular dichroism: degree of helicity (free, SUVs, micelles, TFE); details: percent helicity of peptide-micelle complexes
Expressed in %, but write only the number.

Example cases with answers are listed next.
>>> result_value("209 (PVLDLFRELLNELLQKLK) [compound 209]")
71
>>> result_value("PVLDLFRELLNELLEALOQOLO [peptide 14]")
96

Request the reported He (%) mics associated with 193 (Ac-PVLDLFRELLEELKQKLK-NH2) [compound 193]
88

* * *

test: Circular dichroism: degree of helicity (free, SUVs, micelles, TFE); details: percent helicity of peptide-micelle complexes
Where no end group is shown, it is not given here. [ ]: non-standard residue; d: D form. Aib = CC(C)(N)C(=O)O
Here the recorded He (%) mics is given for each entry.
Numbers only; they are read as %.

Example cases with answers are listed next.
>>> result_value("42 (PVLDEFREKLNE[Aib]WEALKQKLK) [compound 42]")
74
>>> result_value("76 (PVLDEFRELLFE[Aib]LEALKQKLK) [compound 76]")
88

What measured He (%) mics goes with 199 (Ac-PVLDLFRELWEELKQKLK-NH2) [compound 199] ?
77

Reported He (%) mics, substance EWLEAFYKKVLEKLKELF [peptide 18AM4, reference compound] : ____
44

Item PVLDLFRELLNEGLEALKQKLK [peptide 8] has what recorded He (%) mics?
90

Value lookup for He (%) mics; key = LDDLLQKWAEAFNQLLKK [peptide 237, reference compound]
66

Bench note: what He (%) mics did PVLDFFRELLNEXLEALKQKLK (PVLDFFRELLNE[Aib]LEALKQKLK) [peptide 25] show?
82

* * *

assay: Circular dichroism: degree of helicity (free, SUVs, micelles, TFE); details: percent helicity of free, unbound peptide
Where no end group is shown, it is not given here. [ ]: non-standard residue; d: D form. Aib = CC(C)(N)C(=O)O
The substances listed here are annotated with their He (%) free.
Please reply with the bare figure in % and do not write the unit itself.

>>> result_value("192 (Ac-PVLDLFKELLEELKQKLK-NH2) [compound 192]")
36
>>> result_value("223 (PVLDAFRELLEALAQLKK) [compound 223]")
21
>>> result_value("215 (Ac-PVLDLFRELLEEWKQKLK-NH2) [compound 215]")
28
>>> result_value("40 (PVLDLFNELLRELLEALQKKLK) [compound 40]")
66
>>> result_value("108 (PVLDLFRWLLNE[Aib]LEALKQKLK) [compound 108]")
28

Let's switch to this substance now.
I'd like to know its He (%) free. The substance in question is 36 (PLLELLKELLQELLEALKQKLK) [compound 36]
95

* * *

experiment: Circular dichroism: degree of helicity (free, SUVs, micelles, TFE); details: percent helicity of peptide-TFE solution
parameter: He (%) TFE
// units = %; emit number, no label

>>> result_value("99 (KLKQKLAELLENLLERFLDLVP) [compound 99]")
80
>>> result_value("54 (PVLDLFRELLNEWLEALKQKLK) [compound 54]")
78

Turning to the following substance.
// query He (%) TFE value for entry PVLDLFRELLNELWEALKQKLK [peptide 28]
81

Each recorded value in this set is attributed to patent US6602854B1.
